# test_target: UniProt P36888
# Sequence (P36888 whole entry): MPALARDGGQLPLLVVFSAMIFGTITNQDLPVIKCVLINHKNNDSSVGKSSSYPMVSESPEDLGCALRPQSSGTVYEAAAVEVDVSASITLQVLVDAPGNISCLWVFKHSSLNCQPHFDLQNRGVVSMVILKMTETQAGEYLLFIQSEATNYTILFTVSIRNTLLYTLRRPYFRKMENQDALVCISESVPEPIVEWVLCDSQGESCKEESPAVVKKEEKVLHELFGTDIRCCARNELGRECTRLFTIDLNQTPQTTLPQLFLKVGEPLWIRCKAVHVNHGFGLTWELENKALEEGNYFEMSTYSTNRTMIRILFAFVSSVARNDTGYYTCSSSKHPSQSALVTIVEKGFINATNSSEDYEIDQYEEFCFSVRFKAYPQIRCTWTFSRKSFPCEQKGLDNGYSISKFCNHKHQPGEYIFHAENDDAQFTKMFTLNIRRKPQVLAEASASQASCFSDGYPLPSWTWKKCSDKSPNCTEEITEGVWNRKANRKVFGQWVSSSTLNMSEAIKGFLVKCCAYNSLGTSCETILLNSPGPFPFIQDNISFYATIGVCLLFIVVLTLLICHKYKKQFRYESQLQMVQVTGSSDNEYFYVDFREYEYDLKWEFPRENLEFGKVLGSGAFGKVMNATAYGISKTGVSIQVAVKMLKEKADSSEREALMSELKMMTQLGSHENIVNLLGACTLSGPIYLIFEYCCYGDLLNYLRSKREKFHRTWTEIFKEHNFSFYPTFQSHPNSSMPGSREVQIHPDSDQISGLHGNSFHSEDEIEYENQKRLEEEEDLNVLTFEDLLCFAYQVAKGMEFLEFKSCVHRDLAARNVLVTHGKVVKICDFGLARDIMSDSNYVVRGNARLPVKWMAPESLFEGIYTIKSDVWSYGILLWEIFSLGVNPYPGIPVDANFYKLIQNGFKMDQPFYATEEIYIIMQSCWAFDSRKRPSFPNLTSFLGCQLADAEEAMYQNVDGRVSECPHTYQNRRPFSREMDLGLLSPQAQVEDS
measured_attribute: Kd

1. CC(C)(C)c1cc(NC(=O)Nc2ccc(-c3cn4c(n3)sc3cc(OCCCN5CCOCC5)ccc34)cc2)no1 0.99 nM
2. CC(C)(C)c1cc(NC(=O)Nc2ccc(-c3cn4c(n3)sc3cc(CCCN5CCOCC5)ccc34)cc2)no1 1.3 nM
3. CC(C)(C)c1cc(NC(=O)Nc2ccc(-c3cn4c(n3)sc3cc(C(=O)O)ccc34)cc2)no1 1.6 nM
4. CC(C)(C)c1cc(NC(=O)Nc2ccc(-c3cn4c(n3)sc3cc(CCC(=O)O)ccc34)cc2)no1 1.3 nM
